Cited source for all entries: paper PMC4242493

- measured target: Myc;MaxL (Homo sapiens;Homo sapiens, UniProt P01106-1;P61244 1-439;1-160, |)
- Sequence (P01106 16-454, chain 1 of 2): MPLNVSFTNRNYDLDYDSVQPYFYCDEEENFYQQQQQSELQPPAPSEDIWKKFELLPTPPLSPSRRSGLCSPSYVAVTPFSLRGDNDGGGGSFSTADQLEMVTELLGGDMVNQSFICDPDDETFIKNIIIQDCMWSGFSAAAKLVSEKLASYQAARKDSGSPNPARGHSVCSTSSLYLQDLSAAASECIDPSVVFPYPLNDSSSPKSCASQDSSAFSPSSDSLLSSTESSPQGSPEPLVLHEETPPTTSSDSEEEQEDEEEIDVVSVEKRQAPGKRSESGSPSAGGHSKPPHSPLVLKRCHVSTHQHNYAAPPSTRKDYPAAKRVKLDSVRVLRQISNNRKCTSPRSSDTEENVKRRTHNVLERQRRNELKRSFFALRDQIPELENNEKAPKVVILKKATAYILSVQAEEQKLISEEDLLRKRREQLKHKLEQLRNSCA
- Sequence (P61244 whole entry, chain 2 of 2): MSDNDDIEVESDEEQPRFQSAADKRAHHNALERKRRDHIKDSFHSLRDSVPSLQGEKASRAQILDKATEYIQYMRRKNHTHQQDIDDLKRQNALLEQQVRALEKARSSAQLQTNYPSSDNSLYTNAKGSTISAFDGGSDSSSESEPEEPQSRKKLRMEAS
- assay notes: universal protein-binding microarray (PBM); PBS-based mixture, 10 nM His-tagged protein dimer, 2% milk, 200 ng/uL BSA, 50 ng/uL salmon testes DNA, 0.02% TX-100; detection with Alexa 488 anti-His antibody;; high values mean tight binding;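 also: fluorescence intensity normalized to that of the highest-ranked 8-mer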
- condition parameters: protein: recombinant;recombinant; tags: C-terminal His-tag (pET21a);C-terminal His-tag (pET21a); copies: 1;1; dsDNA, one strand shown
Each entry below lists one item and its recorded binding signal value.
Express your answer in normalized occupancy, writing the number without its unit.

## Task Using the record for CACGTGGC , report its binding signal.
## Result 0.927

## Task Using the record for AACACGTG , report its binding signal.
## Result 0.784

## Task Using the record for CACGTGTC , report its binding signal.
## Result 0.761

## Task Using the record for CCACGTGG , report its binding signal.
## Result 0.959

## Task Using the record for ACACGTGT , report its binding signal.
## Result 0.833

## Task Using the record for CCACGTGC , report its binding signal.
## Result 0.978

## Task Using the record for CACGTGCC , report its binding signal.
## Result 0.732

## Task Using the record for CACGTGCG , report its binding signal.
## Result 0.798
